Tested on: BDF1 mice, P388 leukemia ip, median survival T/C
Test: NCI In Vivo Anticancer Drug Screen. Data for tumor model P388 Leukemia (intraperitoneal) in B6D2F1 (BDF1) mice
Conditions: endpoint: median survival time; dose: 100.0 mg/kg/injection; schedule: Q01DX009 (ip); vehicle: water; higher = longer survival
Inconclusive results and toxic doses are left out.
For each entry below, report its T/C value.

Read off the recorded T/C for "O=[N+]([O-])C=C(S)S"
108 % of control

Give T/C for the following molecule: "CCOC(=O)C1=C(Nc2ccccc2)CSC1"
102 % of control

For the molecule "COc1cccc2c(=O)cc(C)[nH]c12" , report T/C.
101 % of control

// fetch T/C given entry NC(Cc1c[nH]c2ccccc12)C(=O)OCc1ccccc1 (stereo not drawn)
101 % of control

Entry "Nc1ccc2cn[nH]c2c1" needs its T/C filled in; supply it.
89 % of control

# return recorded T/C for entry "N=C1N=C(C(F)(F)F)N=C1c1[nH]c(C(F)(F)F)nc1N"
106 % of control

Give T/C for "[Cl][Pt+2]([Cl])([Cl])[Cl].c1ccc(C2CC[N-]CC2)cc1.c1ccc(C2CC[N-]CC2)cc1"
90 % of control

State, in one line, measured T/C of "CCN(CC)CCNc1ccc(CO)c2sc3ccccc3c(=O)c12"
113 % of control

For "CCOC(=O)CNCc1ccc(C)cc1" , write its T/C.
99 % of control

Give the reported T/C for this molecule. "O=C1C=CC(=O)c2c(O)c(CBr)c(CBr)c(O)c21"
105 % of control

Tell me its T/C given CC([NH-])C(=O)O.CC([NH-])C(=O)O.CC([NH-])C(=O)O.[Co+3] (stereo not drawn) as the entry.
92 % of control

Provide measured T/C value, entry: "CC([NH-])=O.CC([NH-])=O.[Pt+2]"
102 % of control

Answer with reported T/C of "O=C(c1c(F)c(F)c(F)c(F)c1F)N1CC1"
111 % of control

---

Hi there, I'd appreciate the recorded T/C for every entry that follows.
Tested on: BDF1 mice, P388 leukemia ip, median survival T/C
Experiment: NCI In Vivo Anticancer Drug Screen. Data for tumor model P388 Leukemia (intraperitoneal) in B6D2F1 (BDF1) mice
Settings: endpoint: median survival time; dose: 12.5 mg/kg/injection; schedule: Q01DX009 (ip); vehicle: saline; higher = longer survival
Toxic doses and inconclusive results are not listed.

// Input: "CCNNC(=O)[C@@H]1[C@H](c2cc(OC)c(OC)c(OC)c2)c2cc3c(cc2[C@H](O)[C@H]1CO)OCO3" . Output its T/C only.
109 % of control

Answer with the recorded T/C of COc1ccc(C(C#N)CC(=O)c2ccc(OC)c(OCc3ccccc3)c2)cc1OC (stereo unspecified) only.
95 % of control

Please look at this molecule and report its T/C: "CC(=O)c1ccc2c(c1)N(CCCN1CCN(CCO)CC1)c1ccccc1S2"
94 % of control

Hello, please tell me recorded T/C for this one: CCOC(=O)C(NC(C)=O)(C(=O)OCC)C(C)C(=O)c1ccc(OC)c(OC)c1OCc1ccccc1 (stereo unspecified)
101 % of control

Respond only with T/C recorded for "COc1ccc(/C=C/C(=O)c2ccc3c(c2)OCO3)cc1O"
100 % of control

Annotate the molecule "c1nc(SC2=NCCN2)c2[nH]cnc2n1" with its measured T/C.
119 % of control

---

Test system: BDF1 mice, P388 leukemia ip, median survival T/C
Experiment: NCI In Vivo Anticancer Drug Screen. Data for tumor model P388 Leukemia (intraperitoneal) in B6D2F1 (BDF1) mice
Conditions: endpoint: median survival time; dose: 200.0 mg/kg/injection; schedule: Q04DX002 (ip); vehicle: saline with Tween-80; higher = longer survival
Experimental: The antitumor activity of compounds was measured in mice bearing transplantable tumors. Survival or tumor size were measured and the results are expressed as the measurement made in the treated group (T) divided by the measurement made in the vehicle treated control group (C). The tumor model used in this assay is P388 Leukemia (intraperitoneal) in B6D2F1 (BDF1) mice
Toxic doses and inconclusive results are not listed.
Can you tell me T/C for the items I'm about to list?

Lab note: BDF1 mice, P388 leukemia ip, median survival T/C assay, enter T/C for O=S(=O)(O)C1CCCCC1O (stereo unspecified) here
101 % of control

Fill in T/C for c1ccc(C2CC3CCCCN3O2)cc1 (stereo unspecified) tested with BDF1 mice, P388 leukemia ip, median survival T/C.
103 % of control

Would you please give the reported T/C of "CC(C)(C)OC(=O)c1cccc(C(=O)OC(C)(C)C)c1" with BDF1 mice, P388 leukemia ip, median survival T/C?
95 % of control

Report its T/C with BDF1 mice, P388 leukemia ip, median survival T/C as the test system: O=S1(=O)CC(N2CCCCC2)C2=C(CCN(c3ccccc3)C2)O1 (stereo unspecified)
95 % of control

Param request: T/C | system BDF1 mice, P388 leukemia ip, median survival T/C | item "CCCCNC(=O)c1ccccc1Sc1ccccc1C(=O)NCCCC"
109 % of control

Write down the reported T/C (system: BDF1 mice, P388 leukemia ip, median survival T/C) of CC(CCC(=O)NC12CC3CC(CC(C3)C1)C2)C1CCC2C3C(OC=O)CC4CC(OC=O)CCC4(C)C3CC(OC=O)C12C (stereo unspecified)
88 % of control

---

Test system: BDF1 mice, P388 leukemia ip, median survival T/C
Experiment: NCI In Vivo Anticancer Drug Screen. Data for tumor model P388 Leukemia (intraperitoneal) in B6D2F1 (BDF1) mice
Settings: endpoint: median survival time; dose: 2.0 mg/kg/injection; schedule: Q01DX009 (ip); vehicle: saline with Tween-80; higher = longer survival
Toxic doses and inconclusive results are not listed.
Would you kindly list T/C for each of these compounds?

# lookup: BDF1 mice, P388 leukemia ip, median survival T/C T/C, key = "O=S(=O)(F)c1cc(C[P+](c2ccccc2)(c2ccccc2)c2ccccc2)ccc1Cl"
109 % of control

// fetch T/C for C=C1C(O)C2(O)OCC34C(CC5C(C)=CC(=O)C(OC)C5(C)C23)OC(=O)C(OC(=O)C(C)CC)C14 (centres undefined) ; system: BDF1 mice, P388 leukemia ip, median survival T/C
115 % of control

Please report T/C with BDF1 mice, P388 leukemia ip, median survival T/C for item C[Se]c1ncnc2c(C3OC(CO)C(O)C3O)[nH]nc12 (centres undefined) .
109 % of control

// fetch T/C for CC1CC(=O)C(O)C2(C)C1CC1OC(=O)C(OC(=O)c3ccccc3)C3C(C)C(O)C4(O)OCC13C42 (centres undefined) ; system: BDF1 mice, P388 leukemia ip, median survival T/C
121 % of control

---

Please provide measured T/C for the entries that follow.
Tested on: BDF1 mice, P388 leukemia ip, median survival T/C
Test: NCI In Vivo Anticancer Drug Screen. Data for tumor model P388 Leukemia (intraperitoneal) in B6D2F1 (BDF1) mice
Conditions: endpoint: median survival time; dose: 100.0 mg/kg/injection; schedule: Q01DX009 (ip); vehicle: Klucel (hydroxypropylcellulose) (HPC); higher = longer survival
Toxic doses and inconclusive results are not listed.

Note down T/C recorded for "CCOc1ccc2nc(/C=C\c3cc4c5c(c3)CCCN5CCC4)ccc2c1"
90 % of control

Output T/C of CC(C)C1C(C)N1C(C)C (stereo not drawn)
95 % of control

Please give measured T/C of the following entry: "CN(C)c1ccc(/C=C/c2nc3ccccc3s2)cc1"
100 % of control

// fetch T/C given entry "Cc1c2c(cc3c1[nH]c1ccccc13)C(c1ccc(Cl)cc1)=NCC2"
86 % of control

Recall and state the measured T/C for "Nc1ncc([N+](=O)[O-])cn1" .
95 % of control

Please indicate T/C recorded for "[Cl][Pt+2]([Cl])([Cl])[Cl].c1ccc(C2CC[N-]CC2)cc1.c1ccc(C2CC[N-]CC2)cc1"
121 % of control

Input "CC(C)CCCc1c[nH]c(=O)[nH]c1=O" , output reported T/C.
86 % of control

Specify measured T/C for c1nc(N2CC2)c2cnn(C3CCCCO3)c2n1 (stereo not drawn) .
95 % of control

Annotate the compound "COc1ccc(C(=O)c2cc(OC)c(OC)c(OC)c2)cc1OC" with its measured T/C.
92 % of control

Report T/C, nothing else, for this compound: "CN(C)c1ccc(C=O)cc1Br"
95 % of control

For C=C1C(c2ccccc2)C(c2ccccc2)=C(C)C(c2ccccc2)=CN1C(=O)c1ccccc1 (stereo not drawn) , write its T/C.
88 % of control

Please give measured T/C of the following entry: "CCNc1nc(Cl)nc(-c2cn(-c3ccccc3)c3ccccc23)n1"
91 % of control

Identify the reported T/C for the following entry. "CC(=O)O[C@]1(C(C)=O)CC[C@H]2[C@@H]3C[C@H](F)C4=CC(=O)CC[C@]4(C)[C@H]3CC[C@@]21C"
87 % of control

Return value of T/C for input "C[C@]12CC[C@H]3[C@@H](CC[C@]4(O)C[C@@H](O)CC[C@]34C=O)[C@@]1(O)CC[C@@H]2C1=CC(=O)OC1" , no commentary.
100 % of control

Answer with the recorded T/C for the compound listed here: Cc1ccc(S(=O)(=O)OC2CCC(C(C)(C)C)CC2Cl)cc1 (stereo not drawn)
105 % of control

Give reported T/C value for "O=C1C(OC(=O)c2ccccc2)=C(c2ccc(O)cc2)C(=O)C(OC(=O)c2ccccc2)=C1c1ccc(O)cc1"
100 % of control

Please give the documented T/C of "O=C(O)/C=C/c1cc2c(cc1[N+](=O)[O-])OCO2"
88 % of control

Given CCN(C(=O)C(F)(F)F)C(C)(C)C(SSSC(c1ccc(Cl)cc1)C(C)(C)N(CC)C(=O)C(F)(F)F)c1ccc(Cl)cc1 (stereo not drawn) , respond with its T/C.
100 % of control

Supply reported T/C belonging to this compound: "CC(=O)c1cccc(N)c1"
100 % of control

Quick one: give measured T/C for "CN(C)C=Nc1ccccc1"
113 % of control

Return T/C (reported value) for this compound: CC1=CC2=NC(=O)C(c3ccccc3)C(=O)N2C=C1 (stereo not drawn)
115 % of control

Tell me its T/C given CC1CCCC/C1=N/NC(N)=O (stereo not drawn) as the entry.
104 % of control

Provide T/C value for the following compound: "CC(=O)Nc1ccc(N=Nc2ccccc2)cc1F"
120 % of control

Hey, just so you know, these numbers are from PubChem BioAssay AID328.
